Tested on: MvaT
Test: PBM 8-mer E-score (mean of HK and ME arrays) (E-score (dimensionless, -0.5 to 0.5)); higher = stronger relative binding preference
The full ranking holds about 33,000 sequences; the median of “E-score (dimensionless, -0.5 to 0.5)” is about -0.058, and the highest 2% start at about 0.35. The sample holds the highest values, similar sequences and a random draw of the others, so the mix is not that of the screen.
value.kind: PBM 8-mer E-score

INSERT INTO measurements (chain, value_observed) VALUES
  ('AGGACTCG', -0.265),
  ('GTCATAAC', 0.0325),
  ('ATTATAAA', 0.462),
  ('ACTATTCT', 0.208),
  ('ATATTGTA', 0.376),
  ('CCCTTCAG', -0.27),
  ('GTCCAATA', 0.0714),
  ('ATCATAAA', 0.308),
  ('ATAATAGC', 0.362),
  ('CTTATAAA', 0.377),
  ('AGTACCGC', -0.108),
  ('ATTTCTGC', 0.125),
  ('ACATTGTC', 0.116),
  ('ATATTGTG', 0.251),
  ('CCTATAAA', 0.211),
  ('CTAATAGC', 0.0517),
  ('AACAGTGT', 0.123),
  ('CTATTGTA', 0.34),
  ('TCCGTCAA', -0.111),
  ('ACTATAAT', 0.436),
  ('AACCATAT', 0.254),
  ('GACAGAAC', -0.0903);
